tested on: 4 PI3K isoforms (Human recombinant GST-PI3K); assay: PI3K scintillation proximity assay, best IC50 obtained with the four isoforms (alpha, beta, delta, gamma); type: biochemical; settings: best IC50 obtained with the four isoforms of PI3K; read-out: Best potency measured on the 4 PI3K isoforms
PARAMETER_MEASURED: log10(IC50) (log10 of the value in nM)
Record value = log10 of IC50 given in nM.

# example entries with known answers
O=C(c1nn(-c2ccc(CN3CCC(F)(F)CC3)cc2)c2c1CS(=O)(=O)c1ccccc1-2)N1CCOCC1 ... 2.36
COc1ccc2c(c1)S(=O)(=O)Cc1c(C(=O)N3CCOCC3)nn(C)c1-2 ... 2.63
COCC(=O)N1CCC[C@H](n2nc(C(=O)N3CCOCC3)c3c2-c2ccccc2S(=O)(=O)C3)C1 (stereo in doubt) ... 2.42

Hi, could you look up log10(IC50) for each item in my list?
1. CC(C)(C)CCN1CCCC(n2nc(C(=O)N3CCOCC3)c3c2-c2ccccc2S(=O)(=O)C3)C1 (stereo not drawn)
2. O=C(c1nn(-c2ccc(CN3CCC(F)CC3)nc2)c2c1CS(=O)(=O)c1ccccc1-2)N1CCOCC1
3. O=C(c1nn(-c2ccc(CN3CCCC3)cc2)c2c1CS(=O)(=O)c1ccccc1-2)N1CCOCC1

A)
1. 2.77
2. 3.08
3. 2.45

Hi, could you look up log10(IC50) for each item in my list?
1. COCCN1CCC[C@H](n2nc(C(=O)N3CCOCC3)c3c2-c2cccc(F)c2S(=O)(=O)C3)C1 (single isomer, unassigned)
2. O=C(c1nn(C2CCCN(CCc3ccccc3)C2)c2c1CS(=O)(=O)c1ccccc1-2)N1CCOCC1 (stereo not drawn)
3. O=C(c1nn(Cc2nc3ccccc3s2)c2c1CS(=O)(=O)c1ccccc1-2)N1CCOCC1

A)
1. 1.49
2. 2.85
3. 3.17
